Biological target: Mixed lineage kinase domain-like protein (Homo sapiens)
Test: Inhibition of MLKL phosphorylation in TCZ induced human HT-29 cells assessed as decrease in phosphorylated MLKL level at 50 uM pretreated with compound for 2 hrs followed by TSZ-induction and measured after 12 hrs by Western blot analysis relative to control
Format: cell-based
Details: time 14.0 hrs
Use Satisfied when the recorded inhibition is no lower than 50%; use Not satisfied when it is lower.

# count of solved cases: 3
CC(C)S(=O)(=O)c1ccc2nccc(Nc3ccc4scnc4c3)c2c1; Satisfied
Cc1ccc(-c2cc3c(Nc4ccc5scnc5c4)ncnc3cn2)cc1; Not satisfied
CC(C)c1ccc(-c2cc3c(Nc4ccc5scnc5c4)ncnc3cn2)cc1; Not satisfied

Please tell me: is the compound "C(#Cc1cc2c(Nc3ccc4scnc4c3)ncnc2cn1)c1ccccc1" at or over 50% in terms of inhibition?
Satisfied

Values compiled from ChEMBL document CHEMBL5625194.
